quantity measured: melting point

Some entries whose results are on file:
>>> print(df.to_string())
                                   molecule  quantity_measured  reported_value
0  CCCC1=C(C(=O)OCC)C(c2ccoc2C)c2c[nH]nc2N1 (stereo not drawn)      melting point   123 to 125 °C
1  CCCC1=C(C#N)C(c2ccccc2Cl)c2c(n[nH]c2-c2ccccc2OC)N1 (stereo not drawn)      melting point        > 270 °C

Turning now to a further record.
Exam item: Note melting point for the molecule shown: CCCC1=C(C#N)C(c2ccccc2Cl)c2c(n[nH]c2-c2ccc3ccccc3c2)N1 (stereo not drawn)
Marked response: > 270 °C

###

Counter-ions that a name gives are not always drawn.
quantity measured: melting point

Some entries whose results are on file:
>>> print(df.to_string())
                                   compound  quantity_measured  reported_value
0  CCCC1=C(C#N)C(c2cccc(C(F)(F)F)c2Cl)c2c[nH]nc2N1 (stereo not drawn) [Example 201]      melting point        > 250 °C
1  N#CC1=C(C2CC2)Nc2n[nH]cc2C1c1ccccc1Br (stereo not drawn) [Example 267]      melting point        > 250 °C
2  CCCC1=C(C(=O)OCC)C(c2c(OC)ccc3ccccc23)c2c[nH]nc2N1 (stereo not drawn) [Example 68]      melting point   188 to 191 °C

Dear colleague, could you send me melting point for each of the items below? Thanks.
1. CCOC(=O)C1=C(C(F)(F)F)Nc2n[nH]cc2C1c1ccccc1Cl.O=C(O)/C=C\C(=O)O (stereo not drawn) [Example 14]
2. CCCC1=C(C(=O)OCC)C(c2ccccc2Cl)c2c(n[nH]c2C)N1 (stereo not drawn) [Example 230]
3. Cl.Cl.Cl.N#CC1=C(CN2CCN(c3cccc4ccccc34)CC2)Nc2n[nH]cc2C1c1ccccc1Cl (stereo not drawn)
4. CCCC1=C(C(=O)OCC)C(c2cccc3c2CCC3)c2c[nH]nc2N1 (stereo not drawn) [Example 103]
5. CCCC1=C(C(=O)OCC)C(c2ccccc2Cl)c2cn(C(=O)OC(C)(C)C)nc2N1 (stereo not drawn) [Example 205]
6. N#CC1=C(C2CCN(C(=N)N)CC2)Nc2n[nH]cc2C1c1cccc2nonc12 (stereo not drawn) [Example 1031]

Marked response:
1: 171 to 172 °C; 2: 164 to 165 °C; 3: 203 to 205 °C (dec.); 4: 181 to 183 °C; 5: 144 to 147 °C; 6: > 270 °C

Dear colleague, could you send me melting point for each of the items below? Thanks.
1. CN1CCC(C2=C(C#N)C(c3ccccc3Cl)c3c[nH]nc3N2)CC1 (stereo not drawn) (as salt: trifluoroacetate) [Example 1056]
2. CC(=O)C1=C(C#N)C(c2cccc3nonc23)c2c[nH]nc2N1 (stereo not drawn) [Example 1082]
3. Cl.N#CC1=C(C2CCNCC2)Nc2n[nH]cc2C1c1cccc2nonc12 (stereo not drawn)
4. CC(=O)C1=C(C#N)C(c2ccccc2Cl)c2c[nH]nc2N1 (stereo not drawn) [Example 1080]
5. CS(=O)(=O)N1CCC(C2=C(C#N)C(c3cccc(C#N)c3Br)c3c[nH]nc3N2)CC1 (stereo not drawn) [Example 1053]
6. CCCC1=C(C(=O)OCC)C(c2ccco2)c2c[nH]nc2N1.O=C(O)/C=C\C(=O)O (stereo not drawn) [Example 59]

Marked response:
1: > 270 °C; 2: 230 °C (dec.); 3: > 270 °C; 4: 225 to 228 °C (dec.); 5: > 280 °C; 6: 108 to 111 °C

###

quantity measured: melting point

Some entries whose results are on file:
>>> df
                                   compound  reported_value
0  CCCC1=C(C#N)C(c2ccccc2Cl)c2cnn(C(=O)Nc3ccccc3)c2N1 (centres unmarked) [Example 283]   138 to 140 °C
1  CCOC(=O)C1=C(C)Nc2n[nH]cc2C1c1ccccc1C(F)(F)F (centres unmarked) [Example 3]   259 to 262 °C
2  CCCC1=C(C(=O)OCC)C(c2ccccc2Cl)c2cn(C(=O)Nc3ccccc3)nc2N1 (centres unmarked) [Example 215]   145 to 147 °C
3  O=C1OCC2=C1C(c1ccccc1Cl)c1c[nH]nc1N2 (centres unmarked) [Example 96]        > 270 °C
4  CCCC1=C(C(=O)OCC)C(c2cccc(C#N)c2OC)c2c[nH]nc2N1 (centres unmarked) [Example 191]   220 to 222 °C
5  CCCC1=C(C(=O)OCC)C(c2ccc(Cl)cc2)c2c[nH]nc2N1 (centres unmarked) [Example 235]   159 to 161 °C
6  COc1cccc(C2=C(C#N)C(c3ccccc3OC)c3c[nH]nc3N2)c1 (centres unmarked) [Example 152]          192 °C
7  CC(C)C1=C(C#N)C(c2cccc(C#N)c2Br)c2c[nH]nc2N1 (centres unmarked) [Example 260]        > 250 °C
8  Cc1ccccc1C1C(C#N)=C(c2ccccc2)Nc2n[nH]cc21 (centres unmarked) [Example 248]          246 °C
9  CCOC(=O)C1=C(C)Nc2n[nH]cc2C1c1cccc2nonc12 (centres unmarked) [Example 113]          228 °C

Dear colleague, could you send me melting point for each of the items below? Thanks.
1. CCCC1=C(C(=O)OCC)C(c2cccc(OC)c2OC)c2c[nH]nc2N1 (centres unmarked) [Example 46]
2. CCCC1=C(C#N)C(c2ccccc2Cl)c2c(n[nH]c2C(C)(C)C)N1 (centres unmarked) [Example 310]
3. CCOC(=O)C1=C(C(F)(F)F)Nc2n[nH]cc2C1c1ccccc1OC (centres unmarked) [Example 15]
4. N#CC1=C(C2CCCNC2)Nc2n[nH]cc2C1c1cccc2nonc12 (centres unmarked) [Example 1005]
5. N#CC1=C(c2ccccc2)Nc2n[nH]cc2C1c1cccc2nonc12 (centres unmarked) [Example 158]
6. N#CC1=C(C2CCC2)Nc2n[nH]cc2C1c1ccccc1Cl (centres unmarked) [Example 313]

Marked response:
["205 to 206 °C", "> 270 °C", "144 to 146 °C", "202 °C", "231 °C", "188 °C"]

Dear colleague, could you send me melting point for each of the items below? Thanks.
1. CC(C)(C)OC(=O)N1CCCC(C2=C(C#N)C(c3cccc(C#N)c3Br)c3c[nH]nc3N2)C1 (centres unmarked) [Example 1039]
2. CCCC1=C(C(=O)OCC)C(c2cc(F)ccc2F)c2c[nH]nc2N1 (centres unmarked) [Example 49]
3. N#CC1=C(c2ccccc2)Nc2n[nH]cc2C1c1ccccc1[N+](=O)[O-] (centres unmarked) [Example 154]
4. CCCC1=C(C(=O)OCC)C(c2ccccc2F)c2c[nH]nc2N1 (centres unmarked) [Example 26]
5. CCCC1=C(C(=O)OCC)C(c2cc(F)ccc2OC)c2c[nH]nc2N1 (centres unmarked) [Example 51]
6. CCCC1=C(C(=O)OCC)C(c2ccc3c(c2)OCCO3)c2c[nH]nc2N1.O=C(O)/C=C\C(=O)O (centres unmarked) [Example 80]

Marked response:
1. 238 °C
2. 168 to 169 °C
3. 221 °C
4. 192 to 194 °C
5. 164 to 167 °C
6. 147 to 149 °C

Exam item: Note melting point for the compound shown: CCCC1=C(C#N)C(c2ccccc2Cl)c2c(n[nH]c2C(C)C)N1 (centres unmarked) [Example 315]
Marked response: > 270 °C
